Measurement Notes: Chromatographic capacity factor k' by reversed-phase column chromatography (relative lipophilicity)
Type: physicochemical
Condition Notes: Nova-PAK CN HP reversed-phase column; methanol-0.1% phosphoric acid (1:20 v/v) with 10^-3 M triethylamine
Assay Metric: log k'

In [3]: df
Out[3]:
                        structure_as_smiles  assay_metric  result_value
0  NC(=O)[C@@H]1CCCN1C(=O)[C@H](Cc1cn(C(=O)OC2CCCCC2)cn1)NC(=O)[C@@H]1CCC(=O)N1        log k'          1.28
1  CCCCCCOC(=O)n1cnc(C[C@H](NC(=O)[C@@H]2CCC(=O)N2)C(=O)N2CCC[C@H]2C(N)=O)c1        log k'          1.29
2  CCOC(=O)n1cnc(C[C@H](NC(=O)[C@@H]2CCC(=O)N2)C(=O)N2CCC[C@H]2C(N)=O)c1        log k'          0.85
3  CC(C)COC(=O)n1cnc(C[C@H](NC(=O)[C@@H]2CCC(=O)N2)C(=O)N2CCC[C@H]2C(N)=O)c1        log k'          1.09

---

Measurement Notes: Hydrolysis in aqueous buffer solutions (HPLC)
Type: physicochemical
Condition Notes: pH 7.4 buffer, 37° C.
Assay Metric: Half-lives at 37° C., pH 7.4 buffer (h)

                        structure_as_smiles                         assay_metric  result_value
0  CCCCCCCCOC(=O)n1cnc(C[C@H](NC(=O)[C@@H]2CCC(=O)N2)C(=O)N2CCC[C@H]2C(N)=O)c1  Half-lives at 37° C., pH 7.4 buffer          17.5
1  COC(=O)n1cnc(C[C@H](NC(=O)[C@@H]2CCC(=O)N2)C(=O)N2CCC[C@H]2C(N)=O)c1  Half-lives at 37° C., pH 7.4 buffer           9.3
2  CCCCOC(=O)n1cnc(C[C@H](NC(=O)[C@@H]2CCC(=O)N2)C(=O)N2CCC[C@H]2C(N)=O)c1  Half-lives at 37° C., pH 7.4 buffer          19.0
3  CCOC(=O)n1cnc(C[C@H](NC(=O)[C@@H]2CCC(=O)N2)C(=O)N2CCC[C@H]2C(N)=O)c1  Half-lives at 37° C., pH 7.4 buffer          14.2

a: CC(C)COC(=O)n1cnc(C[C@H](NC(=O)[C@@H]2CCC(=O)N2)C(=O)N2CCC[C@H]2C(N)=O)c1
b: NC(=O)[C@@H]1CCCN1C(=O)[C@H](Cc1cn(C(=O)OCc2ccccc2)cn1)NC(=O)[C@@H]1CCC(=O)N1
Prompt: When the recorded Half-lives at 37° C., pH 7.4 buffer values are compared, which is smaller: that of a or that of b ? Answer by stating the label of the chosen item.
Completion: b

---

Assayed Target: pyroglutamyl aminopeptidase (PAPase I) (Bos taurus, UniProt A0ABI0NU39)
Measurement Notes: in vitro
Condition Notes: calf, isolated enzyme aminopeptidase, pH 7.4
Assay Metric: half-life (min)
Express your answer in min, writing the number without its unit.

Prompt: Requested read-out: half-life. Entry: NC(=O)[C@@H]1CCCN1C(=O)[C@H](Cc1cnc[nH]1)NC(=O)[C@@H]1CCC(=O)N1 [TRH, pGlu-L-His-L-ProNH2, reference compound]
Completion: 4

---

Measurement Notes: Apparent partition coefficient between 1-octanol and phosphate buffer pH 7.4
Condition Notes: 1-octanol/0.02 M phosphate buffer pH 7.4, pH 7.4
Assay Metric: logD

                                   molecule  assay_metric  result_value
0  NC(=O)[C@@H]1CCCN1C(=O)[C@H](Cc1cn(C(=O)OCCCl)cn1)NC(=O)[C@@H]1CCC(=O)N1          logD          -1.1

a: CCOC(=O)n1cnc(C[C@H](NC(=O)[C@@H]2CCC(=O)N2)C(=O)N2CCC[C@H]2C(N)=O)c1
b: CCCCCCOC(=O)n1cnc(C[C@H](NC(=O)[C@@H]2CCC(=O)N2)C(=O)N2CCC[C@H]2C(N)=O)c1
c: CC(C)COC(=O)n1cnc(C[C@H](NC(=O)[C@@H]2CCC(=O)N2)C(=O)N2CCC[C@H]2C(N)=O)c1
Prompt: Rank order required: logD, descending. Your task in answering is to list the labels in the requested order.
Completion: b, c, a

1: CC(C)OC(=O)n1cnc(C[C@H](NC(=O)[C@@H]2CCC(=O)N2)C(=O)N2CCC[C@H]2C(N)=O)c1
2: CCCCC(CC)COC(=O)n1cnc(C[C@H](NC(=O)[C@@H]2CCC(=O)N2)C(=O)N2CCC[C@H]2C(N)=O)c1 (stereo partly drawn)
Prompt: When the recorded logD values are compared, which is smaller: that of 1 or that of 2 ? Answer by stating the label of the chosen item.
Completion: 1

a: NC(=O)[C@@H]1CCCN1C(=O)[C@H](Cc1cn(C(=O)OCc2ccccc2)cn1)NC(=O)[C@@H]1CCC(=O)N1
b: CCCCCCCCOC(=O)n1cnc(C[C@H](NC(=O)[C@@H]2CCC(=O)N2)C(=O)N2CCC[C@H]2C(N)=O)c1
c: CCCCOC(=O)n1cnc(C[C@H](NC(=O)[C@@H]2CCC(=O)N2)C(=O)N2CCC[C@H]2C(N)=O)c1
Prompt: Arrange these 3 molecules in increasing order of logD. Your task in answering is to list the labels in the requested order.
Completion: c, a, b

---

Measurement Notes: Chromatographic capacity factor k' by reversed-phase column chromatography (relative lipophilicity)
Type: physicochemical
Condition Notes: Nova-PAK CN HP reversed-phase column; methanol-0.1% phosphoric acid (1:20 v/v) with 10^-3 M triethylamine
Excerpt: The capacity factor k' of a solute is defined as: k'=(tr -t0)/t0 where tr is the retention time of the solute and t0 is the elution time of the solvent.
Assay Metric: log k'

Look over these answered cases.
In [3]: df
Out[3]:
                        structure_as_smiles  result_value
0  CCCCCCCCOC(=O)n1cnc(C[C@H](NC(=O)[C@@H]2CCC(=O)N2)C(=O)N2CCC[C@H]2C(N)=O)c1          1.50
1  CC(C)OC(=O)n1cnc(C[C@H](NC(=O)[C@@H]2CCC(=O)N2)C(=O)N2CCC[C@H]2C(N)=O)c1          0.96

P: CCCCOC(=O)n1cnc(C[C@H](NC(=O)[C@@H]2CCC(=O)N2)C(=O)N2CCC[C@H]2C(N)=O)c1
Q: COC(=O)n1cnc(C[C@H](NC(=O)[C@@H]2CCC(=O)N2)C(=O)N2CCC[C@H]2C(N)=O)c1
Prompt: When the recorded log k' values are compared, which is smaller: that of P or that of Q ? Answer by stating the label of the chosen item.
Completion: Q

---

Measurement Notes: Hydrolysis in aqueous buffer solutions (HPLC)
Assay type: physicochemical
Condition Notes: pH 7.4 buffer, 37° C.
Assay Metric: Half-lives at 37° C., pH 7.4 buffer (h)

                        structure_as_smiles  endpoint_unit  result_value
0  NC(=O)[C@@H]1CCCN1C(=O)[C@H](Cc1cn(C(=O)OC2CCCCC2)cn1)NC(=O)[C@@H]1CCC(=O)N1              h          36.8

1: CC(C)OC(=O)n1cnc(C[C@H](NC(=O)[C@@H]2CCC(=O)N2)C(=O)N2CCC[C@H]2C(N)=O)c1
2: CCCCCCOC(=O)n1cnc(C[C@H](NC(=O)[C@@H]2CCC(=O)N2)C(=O)N2CCC[C@H]2C(N)=O)c1
Prompt: When the recorded Half-lives at 37° C., pH 7.4 buffer values are compared, which is smaller: that of 1 or that of 2 ? Answer by stating the label of the chosen item.
Completion: 2
(2: 17.9 h, 1: 35.8 h)

---

Assayed Target: UniProt A0ABI0NU39
Sequence (A0ABI0NU39 1-214): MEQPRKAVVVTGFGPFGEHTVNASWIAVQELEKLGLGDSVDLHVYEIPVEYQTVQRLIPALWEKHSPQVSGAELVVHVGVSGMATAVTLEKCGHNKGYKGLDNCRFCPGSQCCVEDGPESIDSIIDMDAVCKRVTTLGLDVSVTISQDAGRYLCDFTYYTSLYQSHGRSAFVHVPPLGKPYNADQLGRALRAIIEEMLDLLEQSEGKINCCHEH
Measurement Notes: Degradation in buffer pH 7.4 containing pyroglutamyl aminopeptidase
Condition Notes: calf
Assay Metric: half-life (min)

a: NC(=O)[C@@H]1CCCN1C(=O)[C@H](Cc1cn(C(=O)OCc2ccccc2)cn1)NC(=O)[C@@H]1CCC(=O)N1
b: CCCCOC(=O)n1cnc(C[C@H](NC(=O)[C@@H]2CCC(=O)N2)C(=O)N2CCC[C@H]2C(N)=O)c1
c: CCOC(=O)n1cnc(C[C@H](NC(=O)[C@@H]2CCC(=O)N2)C(=O)N2CCC[C@H]2C(N)=O)c1
Prompt: Rank the items in ascending order with respect to half-life. Your task in answering is to list the labels in the requested order.
Completion: a, b, c
(a: 7 min, b: 11 min, c: 23 min)
